Each recorded value in this set is attributed to patent US9695155B2.

# System: ducksalad
# METHOD_NOTES: Test C flooded paddy test
# Assay type: in vivo, Heteranthera limosa
# CONDITION_SUMMARY: Flood, 250 g ai/ha; scale 0 to 100 (0 no effect, 100 complete control), 13 to 15 days
MEASURE: Plant response rating, Ducksalad

{"CPD_SMILES": "FC(F)c1cnn(-c2ccccc2Oc2ncc(Br)cn2)c1", "MEASURED_ON": "ducksalad", "RESULT": 90}
{"CPD_SMILES": "CCOc1cnn(-c2c(C#N)cccc2Oc2ncc(F)cn2)c1", "MEASURED_ON": "ducksalad", "RESULT": 80}
{"CPD_SMILES": "Cc1ccc(Oc2ncc(Cl)cn2)c(-n2cc(Br)cn2)c1", "MEASURED_ON": "ducksalad", "RESULT": 60}
{"CPD_SMILES": "FC(F)c1cccc(Oc2ncc(Cl)cn2)c1-n1cc(Br)cn1", "MEASURED_ON": "ducksalad", "RESULT": 100}
{"CPD_SMILES": "Clc1cnc(Oc2ccccc2-n2cc(Cl)cn2)nc1", "MEASURED_ON": "ducksalad", "RESULT": 85}
{"CPD_SMILES": "C#Cc1cnn(-c2ccccc2Oc2ncc(Cl)cn2)c1", "MEASURED_ON": "ducksalad", "RESULT": 60}
{"CPD_SMILES": "Fc1cccc(Oc2ncc(Cl)cn2)c1-n1cc(I)cn1", "MEASURED_ON": "ducksalad", "RESULT": 95}

----------
# Tested on: corn
# METHOD_NOTES: Test C preemergence
# Format: in vivo, Zea mays
# CONDITION_SUMMARY: 125 g ai/ha, preemergence; scale 0 (no effect) to 100 (complete control)

{"COMPOUND": "FCc1cccc(Oc2ncc(F)cn2)c1-n1cc(C(F)(F)F)cn1 [Compound 118]", "Corn plant response rating": 85}
{"COMPOUND": "FC(F)(F)c1cnn(-c2ccccc2Oc2ncc(Cl)cn2)c1 [Compound 16]", "Corn plant response rating": 25}
{"COMPOUND": "CCOc1cnn(-c2c(C#N)cccc2Oc2ncc(Cl)cn2)c1 [Compound 92]", "Corn plant response rating": 65}
{"COMPOUND": "Fc1cccc(Oc2ncc(Cl)cn2)c1-n1cc(I)cn1 [Compound 179]", "Corn plant response rating": 15}
{"COMPOUND": "CCOc1cnn(-c2ccccc2Oc2ncc(Cl)cn2)c1 [Compound 187]", "Corn plant response rating": 5}
{"COMPOUND": "FCc1cccc(Oc2ncc(Cl)cn2)c1-n1cc(Br)cn1 [Compound 83]", "Corn plant response rating": 15}
{"COMPOUND": "N#Cc1cn(-c2c(Br)cccc2Oc2ncc(Cl)cn2)nn1 [Compound 116]", "Corn plant response rating": 25}

----------
# Test system: large (Lg) crabgrass
# METHOD_NOTES: Test A preemergence
# Format: in vivo, Digitaria sanguinalis
# CONDITION_SUMMARY: 125 g ai/ha
Here, each record is paired with measured Crabgrass, Large plant response rating (0 to 100 scale) data.
MEASURE: Crabgrass, Large plant response rating (0 to 100 scale)

{"MOLECULE": "Clc1cnc(Oc2cccc(-c3cccnc3)c2-n2cc(Br)cn2)nc1 [Compound 290]", "MEASURED_ON": "large (Lg) crabgrass", "NUMERIC_RESULT": 0}
{"MOLECULE": "FC(F)c1cccc(Oc2ncc(Br)cn2)c1-n1cc(I)cn1 [Compound 185]", "MEASURED_ON": "large (Lg) crabgrass", "NUMERIC_RESULT": 90}
{"MOLECULE": "Cc1ccc(Oc2ncc(Cl)cn2)c(-n2cc(Br)cn2)c1Br [Compound 202]", "MEASURED_ON": "large (Lg) crabgrass", "NUMERIC_RESULT": 40}
{"MOLECULE": "COc1cnc(Oc2cccc(C#N)c2-n2cc(Br)cn2)nc1 [Compound 218]", "MEASURED_ON": "large (Lg) crabgrass", "NUMERIC_RESULT": 80}
{"MOLECULE": "FC(F)c1cccc(Oc2ncc(Cl)cn2)c1-n1cc(Br)cn1 [Compound 194]", "MEASURED_ON": "large (Lg) crabgrass", "NUMERIC_RESULT": 100}
{"MOLECULE": "CC#Cc1cnn(-c2ccccc2Oc2ncc(Cl)cn2)c1 [Compound 189]", "MEASURED_ON": "large (Lg) crabgrass", "NUMERIC_RESULT": 90}
{"MOLECULE": "CCOC(=O)c1cnn(-c2c(C#N)cccc2Oc2ncc(Cl)cn2)c1 [Compound 301]", "MEASURED_ON": "large (Lg) crabgrass", "NUMERIC_RESULT": 0}
{"MOLECULE": "CNN=Cc1cccc(Oc2ncc(Cl)cn2)c1-n1cc(Br)cn1 [Compound 289]", "MEASURED_ON": "large (Lg) crabgrass", "NUMERIC_RESULT": 0}
{"MOLECULE": "N#Cc1cccc(Oc2ncc(Cl)cn2)c1-n1cc(I)cn1 [Compound 204]", "MEASURED_ON": "large (Lg) crabgrass", "NUMERIC_RESULT": 100}
{"MOLECULE": "N#Cc1cc(F)cc(Oc2ncc(Br)cn2)c1-n1cc(Br)cn1 [Compound 239]", "MEASURED_ON": "large (Lg) crabgrass", "NUMERIC_RESULT": 100}

----------
# Test system: giant foxtail
# METHOD_NOTES: Test C postemergence
# Type: in vivo, Setaria faberii
# CONDITION_SUMMARY: Postemergence, 31 g ai/ha; scale 0 to 100 (0 no effect, 100 complete control); 13 to 15 days

{"CPD_SMILES": "N#Cc1cccc(Oc2ncc(Cl)cn2)c1-n1cnc(Br)c1", "MEASURED_ON": "giant foxtail", "Plant response rating, Foxtail, Giant": 5}
{"CPD_SMILES": "N#Cc1cccc(Oc2ncc(F)cn2)c1-n1cc(Cl)cn1", "MEASURED_ON": "giant foxtail", "Plant response rating, Foxtail, Giant": 0}
{"CPD_SMILES": "FC(F)(F)c1cnn(-c2ccccc2Oc2ncc(Cl)cn2)c1", "MEASURED_ON": "giant foxtail", "Plant response rating, Foxtail, Giant": 5}
{"CPD_SMILES": "CCOc1cnn(-c2c(C#N)cccc2Oc2ncc(F)cn2)c1", "MEASURED_ON": "giant foxtail", "Plant response rating, Foxtail, Giant": 5}

----------
Form field: Plant response rating, Ducksalad (one value per entry).
# System: ducksalad
# METHOD_NOTES: Test C flooded paddy test
# Format: in vivo, Heteranthera limosa
# CONDITION_SUMMARY: Flood, 31 g ai/ha; scale 0 to 100 (0 no effect, 100 complete control), 13 to 15 days
MEASURE: Plant response rating, Ducksalad

{"CPD_SMILES": "FC(F)c1cccc(Oc2ncc(Cl)cn2)c1-n1cc(Br)cn1", "NUMERIC_RESULT": 65}
{"CPD_SMILES": "C#Cc1cnn(-c2ccccc2Oc2ncc(Cl)cn2)c1", "NUMERIC_RESULT": 0}
{"CPD_SMILES": "Cc1ccc(Oc2ncc(Cl)cn2)c(-n2cc(Br)cn2)c1", "NUMERIC_RESULT": 0}
{"CPD_SMILES": "Brc1cnc(Oc2ccccc2-n2cc(Br)cn2)nc1", "NUMERIC_RESULT": 0}
{"CPD_SMILES": "FC(F)c1cnn(-c2ccccc2Oc2ncc(Br)cn2)c1", "NUMERIC_RESULT": 30}
{"CPD_SMILES": "Clc1cnc(Oc2ccccc2-n2cc(Cl)cn2)nc1", "NUMERIC_RESULT": 0}
{"CPD_SMILES": "Fc1cccc(Oc2ncc(Cl)cn2)c1-n1cc(OCC(F)(F)F)cn1", "NUMERIC_RESULT": 20}

----------
Overview of recorded Plant response rating, Sedge, Umbrella for various molecules
# Tested on: sedge, umbrella
# METHOD_NOTES: Test C flooded paddy test
# Type: in vivo, Cyperus difformis
# CONDITION_SUMMARY: Flood, 31 g ai/ha; scale 0 to 100 (0 no effect, 100 complete control), 13 to 15 days
# Excerpt: At time of treatment, test pots were flooded to 3 cm above the soil surface, treated by application of test compounds directly to the paddy water, and then maintained at that water depth for the duration of the test. Treated plants and controls were maintained in a greenhouse for 13 to 15 days, after which time all species were compared to controls and visually evaluated. […] A dash (-) response means no test result.

{"CPD_SMILES": "Fc1cccc(Oc2ncc(Cl)cn2)c1-n1cc(OCC(F)(F)F)cn1", "Plant response rating, Sedge, Umbrella": 0}
{"CPD_SMILES": "FC(F)(F)c1cnn(-c2ccccc2Oc2ncc(Br)cn2)c1", "Plant response rating, Sedge, Umbrella": 70}
{"CPD_SMILES": "CON=Cc1cccc(Oc2ncc(Cl)cn2)c1-n1cc(Br)cn1", "Plant response rating, Sedge, Umbrella": 50}
{"CPD_SMILES": "Cc1ccc(Oc2ncc(Cl)cn2)c(-n2cc(Br)cn2)c1", "Plant response rating, Sedge, Umbrella": 50}
{"CPD_SMILES": "FC(F)c1cccc(Oc2ncc(Br)cn2)c1-n1cc(I)cn1", "Plant response rating, Sedge, Umbrella": 0}
